TESTED TARGET: PLK3 (h) (Homo sapiens, UniProt Q9H4B4)
Sequence (Q9H4B4 whole entry): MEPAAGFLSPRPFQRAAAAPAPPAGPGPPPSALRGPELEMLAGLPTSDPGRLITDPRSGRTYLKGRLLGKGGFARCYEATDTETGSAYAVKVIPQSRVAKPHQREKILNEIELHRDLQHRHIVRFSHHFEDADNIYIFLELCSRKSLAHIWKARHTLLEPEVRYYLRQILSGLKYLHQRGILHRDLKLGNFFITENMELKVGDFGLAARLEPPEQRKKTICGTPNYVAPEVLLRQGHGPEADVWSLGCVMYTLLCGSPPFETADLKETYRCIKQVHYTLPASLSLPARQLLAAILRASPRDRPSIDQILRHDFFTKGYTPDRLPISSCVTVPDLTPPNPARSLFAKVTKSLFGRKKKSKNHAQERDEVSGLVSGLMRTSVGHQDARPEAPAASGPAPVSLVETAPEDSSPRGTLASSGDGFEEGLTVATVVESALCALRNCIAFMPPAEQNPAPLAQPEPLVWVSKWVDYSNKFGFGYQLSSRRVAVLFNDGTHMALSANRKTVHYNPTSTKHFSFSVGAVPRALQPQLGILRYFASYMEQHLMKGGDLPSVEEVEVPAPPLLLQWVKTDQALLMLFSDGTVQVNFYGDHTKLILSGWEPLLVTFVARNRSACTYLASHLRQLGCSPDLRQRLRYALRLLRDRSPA
EXPERIMENTAL DETAILS: PLK3 human kinase inhibition, SPA
Format: biochemical
TEST CONDITIONS: read-out: PLK3 pIC50 (converted)

COMPOUND: COc1ccc2cc1CN(C)CCNC(=O)CN1CCN(CC1)Cc1cc(Br)cc(c1)Nc1nccc-2n1 [Compound 50]
IC50: > 10 µM
--
COMPOUND: O=C1NCc2cccc(c2)-c2ccnc(n2)Nc2cc(ccc2Cl)CN[C@H]1Cc1ccccc1 [Compound 189]
IC50: > 10 µM
--
COMPOUND: COc1ccc2cc1CN(C)CCNC(=O)[C@@H]1CCCN1Cc1cc(NCCc3ccccc3)cc(c1)Nc1nccc-2n1 [Compound 163]
IC50: > 10 µM
--
COMPOUND: O=C1NCc2cccc(c2)-c2ccnc(n2)Nc2cccc(c2)CN2CCC[C@@H]12 [Compound 53]
IC50: > 10 µM
--
COMPOUND: O=C1NCCCOc2cccc(c2)-c2ccnc(n2)Nc2ccc(N3CCOCC3)c(c2)CN[C@H]1CO [Compound 89]
IC50: > 10 µM
--
COMPOUND: CC(C)(C)O[C@@H]1C[C@H]2C(=O)NCc3cccc(c3)-c3ccnc(n3)Nc3ccccc3CN2C1 [Compound 58]
IC50: > 10 µM
--
COMPOUND: O=C1NCc2cccc(c2)-c2ccnc(n2)Nc2cccc(c2)CN2CCC1CC2 [Compound 124]
IC50: > 10 µM
--
COMPOUND: COc1cc2cc(c1)Nc1nccc(n1)-c1ccc(OC)c(c1)CN(C)CCNC(=O)[C@H](CO)NC2 [Compound 107]
IC50: > 10 µM

###

TESTED TARGET: GSK3β (h) (Homo sapiens)
Sequence (P49841 whole entry): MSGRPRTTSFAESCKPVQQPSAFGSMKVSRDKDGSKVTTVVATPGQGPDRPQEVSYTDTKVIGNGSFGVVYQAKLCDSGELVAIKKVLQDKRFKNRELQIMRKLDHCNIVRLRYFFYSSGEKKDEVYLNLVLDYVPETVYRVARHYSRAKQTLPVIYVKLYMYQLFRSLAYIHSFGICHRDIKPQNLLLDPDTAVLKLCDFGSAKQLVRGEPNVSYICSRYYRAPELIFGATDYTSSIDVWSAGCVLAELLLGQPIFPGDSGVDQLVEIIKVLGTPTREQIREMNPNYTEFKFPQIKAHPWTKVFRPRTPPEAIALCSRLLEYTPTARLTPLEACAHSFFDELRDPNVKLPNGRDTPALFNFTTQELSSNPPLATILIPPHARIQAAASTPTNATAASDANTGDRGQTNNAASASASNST
EXPERIMENTAL DETAILS: GSK-3β human kinase inhibition, SPA
Format: biochemical
TEST CONDITIONS: read-out: GSK3b pIC50 (converted)
Here, each record is paired with measured IC50 data.

CPD SMILES: C[C@@H]1NCc2cccc(c2)-c2ccnc(n2)Nc2ccc(N3CCOCC3)c(c2)CNC1=O
UNIT OF MEASUREMENT: µM
CENSORING OPERATOR: =
IC50: 0.182
--
CPD SMILES: COc1cc2cc(c1)Nc1nccc(n1)-c1ccc(OC)c(c1)CN(C)CCNC(=O)CN1CCN(CC1)C2
UNIT OF MEASUREMENT: µM
CENSORING OPERATOR: =
IC50: 5.01
--
CPD SMILES: CC(C)Nc1cc2cc(c1)Nc1nccc(n1)-c1ccc(cc1)CN(C)CCCNC(=O)[C@@H]1CCCN1C2
UNIT OF MEASUREMENT: µM
CENSORING OPERATOR: >
IC50: 10
--
CPD SMILES: COc1cc2cc(c1)Nc1nccc(n1)-c1ccc(cc1)CN(C)CCNC(=O)[C@H](CO)NC2
UNIT OF MEASUREMENT: µM
CENSORING OPERATOR: =
IC50: 4.79
--
CPD SMILES: COc1ccc2cc1CNCCNC(=O)[C@@H]1CCCN1Cc1cc(ccc1N1CCOCC1)Nc1nccc-2n1
UNIT OF MEASUREMENT: µM
CENSORING OPERATOR: >
IC50: 10
--
CPD SMILES: COc1ccc2cc1CN(C)CCCNC(=O)C1CCN(CC1)Cc1cccc(c1)Nc1nccc-2n1
UNIT OF MEASUREMENT: µM
CENSORING OPERATOR: >
IC50: 10
--
CPD SMILES: O=C1CN2CCN(CC2)Cc2ccc(cc2)Nc2nccc(n2)-c2cccc(c2)CN1
UNIT OF MEASUREMENT: µM
CENSORING OPERATOR: =
IC50: 3.24
--
CPD SMILES: CN(C)C(=O)c1cc2cc(c1)Nc1nccc(n1)-c1cccc(c1)CNC(=O)[C@@H]1CCCN1C2
UNIT OF MEASUREMENT: µM
CENSORING OPERATOR: =
IC50: 0.204
